# Tested Target: T1, Wild type CD117 purified protein (human, UniProt P10721 26-520, limits assumed)
# T1 construct: Protein used in BLI/kinetics and cryo-EM; also called wt CD117; Wt CD117
# T1 sequence (P10721 26-520 limits assumed): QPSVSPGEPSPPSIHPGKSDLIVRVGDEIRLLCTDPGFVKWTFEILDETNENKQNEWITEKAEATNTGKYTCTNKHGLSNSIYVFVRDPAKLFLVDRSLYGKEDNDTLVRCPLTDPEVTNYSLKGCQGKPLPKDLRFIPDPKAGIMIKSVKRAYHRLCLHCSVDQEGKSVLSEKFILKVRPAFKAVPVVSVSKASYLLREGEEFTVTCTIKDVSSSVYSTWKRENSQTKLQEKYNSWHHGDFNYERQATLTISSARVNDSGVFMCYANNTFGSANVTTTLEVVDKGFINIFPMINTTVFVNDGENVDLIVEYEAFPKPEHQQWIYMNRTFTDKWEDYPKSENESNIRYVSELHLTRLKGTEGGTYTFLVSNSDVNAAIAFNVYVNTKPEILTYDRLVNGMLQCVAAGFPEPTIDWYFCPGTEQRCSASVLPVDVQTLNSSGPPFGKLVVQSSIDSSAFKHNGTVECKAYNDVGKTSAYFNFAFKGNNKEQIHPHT
# Experiment Notes: summary Table 75 (repeats Table 71)
Quantity Name: Kd (nM)
Give the value, in units of nM, as a plain number.

Bench note: what Kd did ABTx202 (antibody, human IgG1, V domains shown) VH: EVQLVESGGGLVQPGRSLRLSCAASGFTFDDYAMHWVRQAPGKGLEWVSGISWNSGTIGYADSVKGRFTSSRDNAKNSLYLEMNSLRAEDTALYYCAKDSPPGYCSSASCYGAFDIWGQGTMVTVSS VL: EIVMTQSPGTLSLSPGERATLSCRASQSVSSSYLAWYQQKPGQAPRLLIYGSSTRATGIPARFSGSGSGTEFALTISSLQSEDFAVYYCQQYNFWPYTFGQGTKVEIK show?
2.42

Recorded Kd for ABTx205 (antibody, human IgG1, V domains shown) VH: EVQLVESGGGLVQPGRSLRLSCAASGFTFDDYAMHWVRQAPGKGLEWVSGISWNSGTIGYADSVKGRFTNSRDNAKNSLYLEMNSLRAEDTALYYCAKDSPPGYCSSASCYGAFDIWGQGTMVTVSS VL: DIVMTQSPSFLSASVGDRVTITCRASQGISSYLAWYQQKPGKAPKLLIYAASTLQNGVPSRFSGSGSGTDFTLTITSLQPEDFATYYCQQSYSTPYTFGQGTKLEIK , please?
2.07

Fill blank: measured Kd of the binder ABTx196 (antibody, human IgG1, V domains shown) VH: EVQLVESGGGLVQPGRSLRLSCAASGFTFDDYAMHWVRQAPGKGLEWVSGISWNSGTIGYADSVKGRFTNSRDNAKNSLYLEMNSLRAEDTALYYCAKDSPPGYCSSASCYGAFDIWGQGTMVTVSS VL: DVVMTQSPGTLSLSPGERATLSCRASQSVSSSYLAWYQQKPGQAPRLLIYGASSRATGIPDRFSGSGSGTDFTLTISRLEPEDFAVYYCQQSETCLTFGGGTKLEIK is ____.
8.18
